biological target: T1, non-structural 3 protein (NS3) of the hepatitis C virus (HCV) (hepatitis C virus); experiment: EIA, support-bound peptide, HCV NS3 control
T1 construct: Control antigen; also called HCV NS3
attribute measured: OD at 405 nm (OD)
API: value field is a number in OD; no unit string.

binder	attribute measured	display unit	observed measurement
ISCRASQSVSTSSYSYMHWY [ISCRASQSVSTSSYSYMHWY (SEQ. ID. No. 17)]	OD at 405 nm	OD	0.156
ELTRLTSEDSAVYFCARGDY (also called Peptide # 9) [ELTRLTSEDSAVYFCARGDY (SEQ. ID. No. 12)]	OD at 405 nm	OD	0.073
EKFKGRATLSVDKSSSTAYM (also called Peptide # 7) [EKFKGRATLSVDKSSSTAYM (SEQ. ID. No. 10)]	OD at 405 nm	OD	0.035

Enquiry: Name the reported OD at 405 nm value associated with the binder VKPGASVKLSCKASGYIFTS (also called Peptide # 2; Pept. #2) [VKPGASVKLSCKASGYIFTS (SEQ. ID. No. 5)]
Return: 0.269

Enquiry: Next entry: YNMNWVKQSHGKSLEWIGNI (also called Peptide # 27) [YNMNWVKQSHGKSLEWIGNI (SEQ. ID. No. 30)]
Return: 0.021
